Experiment: Pharmacokinetic interaction study of DSV and TAM/TOH after oral single or co-administration to Wistar rats (UPLC-MS/MS of plasma, NCA)
Format: in vivo
Details: male, Wistar, rat, plasma, po, oral co-administration of DSV 50 mg/kg and TAM 10 mg/kg (TOH as metabolite of TAM); rat plasma; mean ± SD, n = 5
Consider the following compounds and their measured Cmax readings.
Kindly provide the numeric value in ng/mL only, without the unit symbol.

Example cases with answers are listed next.
{"columns": ["compound", "Cmax, ng/mL"],
 "data": [
  ["CC/C(=C(\\c1ccc(O)cc1)c1ccc(OCCN(C)C)cc1)c1ccccc1 [TOH, 4-hydroxy tamoxifen]", 164],
  ["COc1c(-c2ccc3cc(NS(C)(=O)=O)ccc3c2)cc(-n2ccc(=O)[nH]c2=O)cc1C(C)(C)C [DSV, Dasabuvir]", 159]
]}

Let's switch to this compound now.
Find the measured Cmax of CC/C(=C(\c1ccccc1)c1ccc(OCCN(C)C)cc1)c1ccccc1 [TAM, Tamoxifen] and report it.
288

---

Experiment: Stability of DSV, TAM and TOH in rat plasma under storage and treatment conditions
Assay type: in vitro ADME
Details: analyte solutions, 4 °C, 3 months; low concentration level; six determinations; read-out: Refrigerator stability, mean recovery (%) ± RSD
List of recovery at 3 months values.
Kindly provide the numeric value in % only, without the unit symbol.

Completed entries (count: 2):
{"columns": ["compound", "recorded.metric", "recorded.value"],
 "data": [
  ["CC/C(=C(\\c1ccccc1)c1ccc(OCCN(C)C)cc1)c1ccccc1", "recovery at 3 months", 98.9],
  ["COc1c(-c2ccc3cc(NS(C)(=O)=O)ccc3c2)cc(-n2ccc(=O)[nH]c2=O)cc1C(C)(C)C", "recovery at 3 months", 96.2]
]}

Provide one value: measured recovery at 3 months of CC/C(=C(\c1ccc(O)cc1)c1ccc(OCCN(C)C)cc1)c1ccccc1 [TOH, 4-hydroxy tamoxifen]
98

---

Test: Stability of DSV, TAM and TOH in rat plasma under storage and treatment conditions
Format: in vitro ADME
Settings: Wistar, rat, rat plasma (prepared QC samples in the auto-injector), rat plasma; 10 °C, 56 h; low concentration level; six determinations; read-out: Auto-sampler stability, mean recovery (%) ± RSD
Here the recorded recovery at 56 h is given for each entry.
Give your result in % as a bare value.

{"columns": ["molecule", "recorded.metric", "recorded.value"],
 "data": [
  ["CC/C(=C(\\c1ccc(O)cc1)c1ccc(OCCN(C)C)cc1)c1ccccc1 [TOH, 4-hydroxy tamoxifen]", "recovery at 56 h", 99.7],
  ["CC/C(=C(\\c1ccccc1)c1ccc(OCCN(C)C)cc1)c1ccccc1", "recovery at 56 h", 98.2]
]}

Query molecule follows.
// fetch recovery at 56 h given entry COc1c(-c2ccc3cc(NS(C)(=O)=O)ccc3c2)cc(-n2ccc(=O)[nH]c2=O)cc1C(C)(C)C
95.5

---

recovery at 6 h values for the compounds below.
Test: Stability of DSV, TAM and TOH in rat plasma under storage and treatment conditions
Assay type: in vitro ADME
Conditions: Wistar, rat, rat plasma (spiked QC samples), rat plasma; 25 °C, 6 h; low concentration level; six determinations; read-out: Short-term stability, mean recovery (%) ± RSD
Please respond with the number in % and leave the unit unwritten.

{"columns": ["compound", "recorded.value"],
 "data": [
  ["CC/C(=C(\\c1ccc(O)cc1)c1ccc(OCCN(C)C)cc1)c1ccccc1 [TOH, 4-hydroxy tamoxifen]", 96.9]
]}

Report recovery at 6 h for CC/C(=C(\c1ccccc1)c1ccc(OCCN(C)C)cc1)c1ccccc1 [TAM, Tamoxifen]
98.2

Please report recovery at 6 h for the following compound: COc1c(-c2ccc3cc(NS(C)(=O)=O)ccc3c2)cc(-n2ccc(=O)[nH]c2=O)cc1C(C)(C)C [DSV, Dasabuvir]
96.3

Provenance of the data: paper PMC7044166
